Molecular target: BRD4 (BDI_K57-E168) (Homo sapiens, UniProt O60885)
Construct: BD1: amino acids K57-E168; made in house
Assay: TR-FRET bromodomain binding assay, first bromodomain of BRD4
Details: TR-FRET assay protocol G (compound 0.92 μM-15 pM); 100 nM probe
For each entry below, report its log10(Ki) value.
A difference of one corresponds to tenfold Ki; all values are log10 with Ki in nM.

Task item: Identify measured log10(Ki) corresponding to Cn1cc2c3c(c[nH]c3c1=O)C(CCCOc1ccccc1)N(c1ccc(F)cc1F)c1ccc(CS(C)(=O)=O)cc1-2 (stereo not drawn) [Example 143]
Reply: 1.74

Task item: Identify measured log10(Ki) corresponding to Cn1cc2c3c(c(C#N)[nH]c3c1=O)CN(c1ccc(Cl)cc1)c1ccccc1-2
Reply: -0.07

Task item: Identify measured log10(Ki) corresponding to COCCOC(=O)N1Cc2c[nH]c3c(=O)n(C)cc(c23)-c2cc(CS(C)(=O)=O)ccc21
Reply: 1.01

Task item: Identify measured log10(Ki) corresponding to Cn1ccc(CN2Cc3c[nH]c4c(=O)n(C)cc(c34)-c3cc(CS(C)(=O)=O)ccc32)n1
Reply: 0.66

Task item: Identify measured log10(Ki) corresponding to Cn1cc2c3c(c[nH]c3c1=O)CN(C(C#N)c1ccccc1)c1ccc(CS(C)(=O)=O)cc1-2 (stereo not drawn)
Reply: 0.97

Task item: Identify measured log10(Ki) corresponding to COC(=O)NC1CCC(N2Cc3c[nH]c4c(=O)n(C)cc(c34)-c3cc(CS(C)(=O)=O)ccc32)CC1 (stereo not drawn) [Example 225]
Reply: 0.51

Task item: Identify measured log10(Ki) corresponding to COc1cccc(CC(=O)N2Cc3c[nH]c4c(=O)n(C)cc(c34)-c3cc(CS(C)(=O)=O)ccc32)c1
Reply: 1.54

Task item: Identify measured log10(Ki) corresponding to COc1ccccc1S(=O)(=O)N1Cc2c[nH]c3c(=O)n(C)cc(c23)-c2cc(CS(C)(=O)=O)ccc21
Reply: 2.33

Task item: Identify measured log10(Ki) corresponding to Cn1cc2c3c(c[nH]c3c1=O)C(CCCCCCO)N(c1ccc(F)cc1F)c1ccc(CS(C)(=O)=O)cc1-2 (stereo not drawn)
Reply: 1.12

Task item: Identify measured log10(Ki) corresponding to Cn1cc2c3c(c[nH]c3c1=O)CN(C(=O)OCC(C)(C)C)c1ccc(CS(C)(=O)=O)cc1-2
Reply: 0.57

Task item: Identify measured log10(Ki) corresponding to Cn1cc2c3c(c(C(N)=O)[nH]c3c1=O)CN(c1ccc(Cl)cc1)c1ccc(CS(C)(=O)=O)cc1-2
Reply: 0.31

Task item: Identify measured log10(Ki) corresponding to Cn1cc2c3c(c[nH]c3c1=O)CN(CC1CC1)c1ccccc1-2
Reply: 0.68

Task item: Identify measured log10(Ki) corresponding to CC(C)CC(=O)N1Cc2c[nH]c3c(=O)n(C)cc(c23)-c2cc(CS(C)(=O)=O)ccc21
Reply: 0.77

Task item: Identify measured log10(Ki) corresponding to Cn1cc2c3c(c[nH]c3c1=O)CN(c1cncnc1)c1ccc(CS(C)(=O)=O)cc1-2
Reply: 0.53

---

Test system: breast cancer cell line MX-1
Test: MX-1 cell line proliferation assay
Type: cell-based
Settings: MX-1 cells, 3-day proliferation assay, Cell Titer Glo; read-out: Cellular proliferation: EC50
For each entry below, report its EC50 value.
Output spec: scalar in nM, unitless text.

Task item: Identify measured EC50 corresponding to Cn1cc2c3c(c[nH]c3c1=O)C(CNC(=O)CN)N(c1ccc(F)cc1F)c1ccc(CS(C)(=O)=O)cc1-2 (centres unmarked)
Reply: 627

Task item: Identify measured EC50 corresponding to Cn1cc2c3c(c[nH]c3c1=O)CN(C1CCC(NC(=O)OC(C)(C)C)CC1)c1ccc(S(C)(=O)=O)cc1-2 (centres unmarked)
Reply: 57.6

Task item: Identify measured EC50 corresponding to CN1CCN(Cc2[nH]c3c(=O)n(C)cc4c3c2CN(c2ccc(Cl)cc2)c2ccc(CS(C)(=O)=O)cc2-4)CC1
Reply: 14.2

Task item: Identify measured EC50 corresponding to COc1cccc(OC)c1C1c2c[nH]c3c(=O)n(C)cc(c23)-c2cc(CS(C)(=O)=O)ccc2N1c1ccc(F)cc1F (racemic)
Reply: 33

Task item: Identify measured EC50 corresponding to Cn1cc2c3c(c[nH]c3c1=O)CN(C1CCC(NC(=O)OC(C)(C)C)CC1)c1ccc(CS(C)(=O)=O)cc1-2 (centres unmarked) [Example 197]
Reply: 2.66

Task item: Identify measured EC50 corresponding to Cc1cnc2c(c1)-c1cn(C)c(=O)c3[nH]cc(c13)C(c1ccccc1)N2c1ccc(F)cc1 (centres unmarked)
Reply: 495

Task item: Identify measured EC50 corresponding to Cn1cc2c3c(c[nH]c3c1=O)CN(CC(C)(C)CN1CCOCC1)c1ccc(CS(C)(=O)=O)cc1-2
Reply: 21.1

Task item: Identify measured EC50 corresponding to Cn1cc2c3c(c[nH]c3c1=O)C(Cn1ccccc1=O)N(c1ccc(F)cc1F)c1ccc(CS(C)(=O)=O)cc1-2 (centres unmarked) [Example 238]
Reply: 275

Task item: Identify measured EC50 corresponding to Cn1cc2c3c(c[nH]c3c1=O)C(CNC(=O)CNC(=O)OC(C)(C)C)N(c1ccc(F)cc1F)c1ccc(CS(C)(=O)=O)cc1-2 (centres unmarked)
Reply: 510

---

Target: BRD4 (BDII_E352-M457) (Homo sapiens, UniProt O60885)
Construct: protocol; made in house
Experiment: TR-FRET bromodomain binding assay, second bromodomain of BRD4
Details: TR-FRET assay protocol G (compound 0.92 μM-15 pM); 30 nM probe
assay.endpoint: pKi
Please express pKi as -log10 of the molar concentration.

Task item: // output pKi; input Cn1cc2c3c(c[nH]c3c1=O)C(C(=O)NCCCc1ccccc1)N(c1ccc(F)cc1F)c1ccc(CS(C)(=O)=O)cc1-2 (racemic) [Example 160] ; system BRD4 (BDII_E352-M457) (Homo sapiens, UniProt O60885)
Reply: 6.93

Task item: // output pKi; input Cn1cc2c3c(c[nH]c3c1=O)C(CCCO)N(c1ccc(F)cc1F)c1ccc(CS(C)(=O)=O)cc1-2 (stereo not drawn) [Example 142] ; system BRD4 (BDII_E352-M457) (Homo sapiens, UniProt O60885)
Reply: 9.22

Task item: // output pKi; input Cn1cc2c3c(c[nH]c3c1=O)C(CCC(=O)NC1CCNCC1)N(c1ccc(F)cc1F)c1ccc(CS(C)(=O)=O)cc1-2 (stereo not drawn) [Example 132] ; system BRD4 (BDII_E352-M457) (Homo sapiens, UniProt O60885)
Reply: 8.50

---

For each entry below, report its EC50 value.
System: breast cancer cell line MX-1
Assay: MX-1 cell line proliferation assay
Format: cell-based
Conditions: MX-1 cells, 3-day proliferation assay, Cell Titer Glo; read-out: Cellular proliferation: EC50
Output spec: scalar in nM, unitless text.

Task item: Identify measured EC50 corresponding to Cn1cc2c3c(c[nH]c3c1=O)CN(CC1CC1)c1ncc(S(N)(=O)=O)cc1-2
Reply: 60.8

Task item: Identify measured EC50 corresponding to Cn1cc2c3c(c[nH]c3c1=O)C(c1ccccc1-c1ccccc1)N(c1ccc(F)cc1F)c1ccc(CS(C)(=O)=O)cc1-2 (stereo not drawn)
Reply: 528

Task item: Identify measured EC50 corresponding to Cn1cc2c3c(c[nH]c3c1=O)CN(C(=O)NC1CCCC1)c1ccc(CS(C)(=O)=O)cc1-2
Reply: 48.7

---

For each entry below, report its Ki value.
Molecular target: BRD4 (BDII_E352-M457) (Homo sapiens)
Construct: protocol; made in house
Assay: TR-FRET bromodomain binding assay, second bromodomain of BRD4
Settings: TR-FRET assay protocol G (compound 0.92 μM-15 pM); 30 nM probe
Output spec: scalar in nM, unitless text.

Task item: Identify measured Ki corresponding to COCCC(C)N1Cc2c[nH]c3c(=O)n(C)cc(c23)-c2cc(CS(C)(=O)=O)ccc21 (racemic) [Example 186]
Reply: 9.2

Task item: Identify measured Ki corresponding to Cn1cc2c3c(c[nH]c3c1=O)C(CN1C(=O)c3ccccc3C1=O)N(c1ccc(F)cc1F)c1ccc(CS(C)(=O)=O)cc1-2 (stereo not drawn) [Example 204]
Reply: 1.22

Task item: Identify measured Ki corresponding to Cn1cc2c3c(c[nH]c3c1=O)C(c1ccccc1-c1ccccc1)N(c1ccc(F)cc1F)c1ccc(CS(C)(=O)=O)cc1-2 (stereo not drawn) [Example 230]
Reply: 58.1

Task item: Identify measured Ki corresponding to Cn1cc2c3c(c[nH]c3c1=O)CN(C1CCC(N)CC1)c1ccc(S(C)(=O)=O)cc1-2 (stereo not drawn) [Example 171]
Reply: 29.2

Task item: Identify measured Ki corresponding to Cn1cc2c3c(c[nH]c3c1=O)CN(c1ccc(C(F)(F)F)cn1)c1ccc(CS(C)(=O)=O)cc1-2 [Example 253]
Reply: 1.18

Task item: Identify measured Ki corresponding to Cn1cc2c3c(c[nH]c3c1=O)C(C(=O)NC1(C)CC1)N(c1ccc(F)cc1F)c1ccc(CS(C)(=O)=O)cc1-2 (racemic) [Example 167]
Reply: 76.3

Task item: Identify measured Ki corresponding to Cn1cc(-c2[nH]c3c(=O)n(C)cc4c3c2CN(c2ccc(F)cc2)c2ccc(CS(C)(=O)=O)cc2-4)cn1 [Example 276]
Reply: 1.18

Task item: Identify measured Ki corresponding to CCCCN1Cc2c[nH]c3c(=O)n(C)cc(c23)-c2cc(F)cc(F)c21 [Example 47]
Reply: 1.27

Task item: Identify measured Ki corresponding to Cn1cc2c3c(c[nH]c3c1=O)CN(C(=O)Nc1c(F)cccc1F)c1ccc(CS(C)(=O)=O)cc1-2 [Example 70]
Reply: 1.88

Task item: Identify measured Ki corresponding to Cn1cc2c3c(c[nH]c3c1=O)C(CCCOc1ccccc1)N(c1ccc(F)cc1F)c1ccc(CS(C)(=O)=O)cc1-2 (stereo not drawn) [Example 145]
Reply: 1.38

Task item: Identify measured Ki corresponding to Cn1cc2c3c(c[nH]c3c1=O)CN(C(=O)OCCCCCl)c1ccc(CS(C)(=O)=O)cc1-2 [Example 89]
Reply: 4.53

Task item: Identify measured Ki corresponding to COc1cc(N2Cc3c[nH]c4c(=O)n(C)cc(c34)-c3cc(CS(C)(=O)=O)ccc32)cc(OC)c1OC [Example 211]
Reply: 7.47
